biological target: Angiotensin-converting enzyme (Mus musculus) (UniProt P09470); assay: In vivo inhibition of lung ACE was observed at 120 min after oral administration of the compound; format: functional, organism-based; set-up: concentration or dose not given beside the values
Sequence (P09470 whole entry): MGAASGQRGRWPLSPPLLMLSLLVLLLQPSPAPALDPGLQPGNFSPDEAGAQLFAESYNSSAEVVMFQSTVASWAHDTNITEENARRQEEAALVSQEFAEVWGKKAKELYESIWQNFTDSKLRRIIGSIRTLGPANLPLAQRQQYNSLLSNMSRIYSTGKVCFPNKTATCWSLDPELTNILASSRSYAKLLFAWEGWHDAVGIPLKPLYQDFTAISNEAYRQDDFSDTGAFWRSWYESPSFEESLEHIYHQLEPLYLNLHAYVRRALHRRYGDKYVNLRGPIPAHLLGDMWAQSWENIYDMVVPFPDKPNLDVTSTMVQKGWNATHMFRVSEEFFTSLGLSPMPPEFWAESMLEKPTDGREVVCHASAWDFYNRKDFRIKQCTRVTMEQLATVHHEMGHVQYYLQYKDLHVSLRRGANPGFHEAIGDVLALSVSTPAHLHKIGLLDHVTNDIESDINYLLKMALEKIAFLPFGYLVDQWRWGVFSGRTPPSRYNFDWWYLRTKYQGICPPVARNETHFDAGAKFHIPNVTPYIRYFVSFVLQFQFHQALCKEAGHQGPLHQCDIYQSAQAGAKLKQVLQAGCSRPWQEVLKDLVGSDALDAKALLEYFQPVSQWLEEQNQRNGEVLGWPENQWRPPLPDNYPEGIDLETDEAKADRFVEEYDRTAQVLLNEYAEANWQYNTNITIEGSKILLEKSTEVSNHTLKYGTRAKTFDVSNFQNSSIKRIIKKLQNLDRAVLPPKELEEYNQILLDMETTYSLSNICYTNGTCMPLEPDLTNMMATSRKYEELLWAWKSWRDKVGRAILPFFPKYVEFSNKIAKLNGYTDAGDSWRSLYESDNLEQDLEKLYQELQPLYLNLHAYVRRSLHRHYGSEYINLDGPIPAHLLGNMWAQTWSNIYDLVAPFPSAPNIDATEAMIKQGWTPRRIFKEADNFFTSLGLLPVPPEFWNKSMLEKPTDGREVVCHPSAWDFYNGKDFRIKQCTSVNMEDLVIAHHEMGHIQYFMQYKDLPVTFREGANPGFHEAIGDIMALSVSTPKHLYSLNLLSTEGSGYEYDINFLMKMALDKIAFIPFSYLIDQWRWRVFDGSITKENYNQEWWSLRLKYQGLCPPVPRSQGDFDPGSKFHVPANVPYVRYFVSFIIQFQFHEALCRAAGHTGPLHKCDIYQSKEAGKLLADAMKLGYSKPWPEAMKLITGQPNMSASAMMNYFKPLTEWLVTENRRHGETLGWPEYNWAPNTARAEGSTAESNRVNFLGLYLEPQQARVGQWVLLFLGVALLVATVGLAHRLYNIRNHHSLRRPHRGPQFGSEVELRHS
METRIC NAME: Control (%)
Answer with a number only, understood to be in %.

Some entries whose results are on file:
| COMPOUND | Control, % |
| --- | --- |
| CC(c1ccccc1)C(CSC(=O)C12CC3CC(CC(C3)C1)C2)C(=O)N[C@@H](C)C(=O)OCc1ccccc1 (stereo partly drawn) | 42 |
| CC[C@H](NC(=O)C(CSC(=O)c1ccccc1)C(C)c1ccccc1)C(=O)O (stereo partly drawn) | 39 |

The compound listed as CCC[C@H](NC(=O)C(CSC(=O)c1ccccc1)C(C)c1ccccc1)C(=O)O (stereo partly drawn) shows Control equal to 49
